TEST: cytosolic pH regulators acting via V-ATPase – S. cerevisiae, pHLuorin, HTS validation (AID 504600);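 also: plate controls were DMSO for no effect and reference compound for full effect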
CONDITION SET: V-ATPase proton transport, at 10 µM, stronger effect = higher value
READOUT LABEL: response (%)
The figure you give is taken to be in %; do not add the unit.

COMPOUND: CSCC[C@H](NC(=O)NC1CCCC1)C(=O)O
UNITS OF MEASURE: %
response: 1.23
//
COMPOUND: O=C1C(=O)c2ccccc2C(O)=C1c1ccccc1F
UNITS OF MEASURE: %
response: 0.28
//
COMPOUND: Cc1oc2c(O)c(O)ccc2c(=O)c1-c1ccccc1
UNITS OF MEASURE: %
response: -1.26
//
COMPOUND: C[C@]12CC[C@@H]3c4ccc(O)cc4CC[C@H]3[C@@H]1C[C@@H](O)[C@@H]2O[C@@H]1O[C@H](C(=O)O)[C@@H](O)[C@H](O)[C@H]1O
UNITS OF MEASURE: %
response: -6.58
//
COMPOUND: COc1cccc(-n2cc(CNCc3c(C(=O)N(C)C)nc4ccc(Cl)cn34)cn2)c1
UNITS OF MEASURE: %
response: -0.56
//
COMPOUND: N#C/C(=C\c1ccc(O)c(O)c1)C(=O)NCCCc1ccccc1
UNITS OF MEASURE: %
response: -4.8
//
COMPOUND: NS(=O)(=O)c1cc2c(cc1Cl)NC(C1C[C@H]3C=C[C@@H]1C3)NS2(=O)=O (stereo partly specified)
UNITS OF MEASURE: %
response: -7.8
//
COMPOUND: O=C(NCCC(c1ccccc1)c1ccco1)c1cccs1 (stereo unspecified)
UNITS OF MEASURE: %
response: 2.49
//
COMPOUND: CC(C)N(C(=O)Cc1ccccc1[N+](=O)[O-])C(C)C
UNITS OF MEASURE: %
response: 1.74
//
COMPOUND: CCOC(=O)[C@H]1O[C@@H]1C(=O)N[C@@H](CC(C)C)C(=O)NCCC(C)C
UNITS OF MEASURE: %
response: 6.36

We next turn to a different compound, shown below.
Lookup: Look up response for this compound: `COc1cc2c(cc1OC)C(=S)NC(C)(C)C2`
Found: -4.8

* * *

Quick reference for GFP response, % of DMSO among some molecules
TEST: yeast AGP1-GFP level changes, GLN3 branch – cell-based, multiplex flow cytometry, S. cerevisiae, primary screen (AID 1887);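 also: AGP1-GFP fusion strain of S. cerevisiae within a five-strain barcoded multiplex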
CONDITION SET: 3 h, at 10 µM, stronger effect = higher value
Inconclusive results are not listed.
The figure you give is taken to be in %; do not add the unit.

Examples with answers:
MOLECULE: CC12CCC(C(=O)N3CCc4ccccc43)(CC1=O)C2(C)C (stereo unspecified)
MEASURED VALUE: 91.2
//
MOLECULE: COc1cc(CNCc2ccc(OC)c(OC)c2OC)cc(OC)c1
MEASURED VALUE: 112

Lookup: Look up GFP response, % of DMSO for this molecule: `O=C(CCc1ccccc1)Nc1ccccc1C(F)(F)F`
Found: 103

Lookup: Look up GFP response, % of DMSO for this molecule: `CC(C)c1cc(=O)oc2c3c4c(cc12)CCCN4CCC3`
Found: 90.6

Lookup: Look up GFP response, % of DMSO for this molecule: `O=C1CCc2cc(OCCCCc3nnnn3C3CCCCC3)ccc2N1`
Found: 92.2

Lookup: Look up GFP response, % of DMSO for this molecule: `Cc1coc2cc3oc(=O)c(CCC(=O)O)c(C)c3cc12`
Found: 86.8

Lookup: Look up GFP response, % of DMSO for this molecule: `C[C@H]1C[C@@H]2[C@H]([C@@H](O)C[C@@]3(C)[C@H]2CC[C@]3(O)C(=O)CO)[C@@]2(C)C=CC(=O)C=C12`
Found: 83.6

Lookup: Look up GFP response, % of DMSO for this molecule: `Cc1cccc2c(=O)n3c(nc12)CCCCC3`
Found: 104

Lookup: Look up GFP response, % of DMSO for this molecule: `C(=C\c1ccc2ccccc2n1)/c1ccccc1`
Found: 93.2

Lookup: Look up GFP response, % of DMSO for this molecule: `CC(/C=C1\SC(=O)N(CCCC(=O)O)C1=O)=C\c1ccccc1`
Found: 99.3

Lookup: Look up GFP response, % of DMSO for this molecule: `COC(=O)c1ccc(C(=O)OC)c(NC(=O)C(C)C)c1`
Found: 112

* * *

Quick reference for aptamer binding inhibition among some compounds
TARGET OR SYSTEM: Beta-adrenergic receptor kinase 1 (Homo sapiens)
TEST: GRK2 binders displacing RNA aptamer, biochemical, validation, human GRK2, bead flow cytometry (AID 488806)
CONDITION SET: bead-bound GRK2, FAM-aptamer displacement, at 10 µM, stronger effect = higher value
The figure you give is taken to be in %; do not add the unit.

Examples with answers:
COMPOUND: CCC(C)NCCOc1ccc(C(C)(C)c2ccccc2)cc1 (configuration not stated)
MEASURED VALUE: -5

COMPOUND: NS(=O)(=O)c1ccc(CCNC(=O)C2CCCN2C(=O)OCc2ccccc2)cc1 (configuration not stated)
MEASURED VALUE: -8

COMPOUND: CCOc1ccc2nc(NC(=O)NC3CCCCC3)sc2c1
MEASURED VALUE: 4

Lookup: Look up aptamer binding inhibition for this compound: COc1ccc2cc(C3(C)NC(=O)NC3=O)ccc2c1 (configuration not stated)
Found: 2

Lookup: Look up aptamer binding inhibition for this compound: CCOC(=O)c1ccc(N2C(=O)C(CC(=O)NC)N(CCc3ccc(OC)c(OC)c3)C2=S)cc1 (configuration not stated)
Found: 5

Lookup: Look up aptamer binding inhibition for this compound: COc1cccc(CC2CC(=O)N(c3ccc4c(C)cc(=O)oc4c3)C2=O)c1 (configuration not stated)
Found: 2

Lookup: Look up aptamer binding inhibition for this compound: NCCCC(N)(C(=O)O)C(F)F (configuration not stated)
Found: 3

Lookup: Look up aptamer binding inhibition for this compound: `Nc1ccc2nc(Cc3ccccc3)[nH]c2c1`
Found: 7

Lookup: Look up aptamer binding inhibition for this compound: `COc1cc2c(cc1NCc1ccc3c(c1)OCO3)oc1ccccc12`
Found: 0

Lookup: Look up aptamer binding inhibition for this compound: O=C(c1ccco1)N(CCC(c1ccccc1)c1ccco1)Cc1ccco1 (configuration not stated)
Found: 5

Lookup: Look up aptamer binding inhibition for this compound: COc1ccccc1N=CC1=C(O)CC(c2ccccc2)CC1=O (configuration not stated)
Found: 2

Lookup: Look up aptamer binding inhibition for this compound: `O=C(/C=C/c1ccco1)Nc1ccccc1C(=O)O`
Found: 11

* * *

TEST: cytosolic pH regulators acting via V-ATPase – S. cerevisiae, pHLuorin, HTS validation (AID 504600);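 also: plate controls were DMSO for no effect and reference compound for full effect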
CONDITION SET: V-ATPase proton transport, at 10 µM, stronger effect = higher value
READOUT LABEL: response (%)
The figure you give is taken to be in %; do not add the unit.

Examples with answers:
COMPOUND: CSCCC1NC2(C(=O)Nc3ccc(Cl)cc32)[C@@H]2C(=O)N(C3CCCC3)C(=O)[C@H]12 (stereo partly specified)
READOUT LABEL: response
UNITS OF MEASURE: %
MEASURED VALUE: 1.16
--
COMPOUND: O=C(NCc1ccco1)/C(=C\C=C\c1ccccc1)NC(=O)c1ccccc1Br
READOUT LABEL: response
UNITS OF MEASURE: %
MEASURED VALUE: 1.56
--
COMPOUND: COc1ccc(C(=O)Nc2ncc3c(n2)CC(C)CC3=O)cc1 (stereo unspecified)
READOUT LABEL: response
UNITS OF MEASURE: %
MEASURED VALUE: -6.31
--
COMPOUND: Cn1c(=O)c2nc3ccccc3nc2n(C)c1=O
READOUT LABEL: response
UNITS OF MEASURE: %
MEASURED VALUE: 2.81
--
COMPOUND: CC(=O)C1=C(O)C(=O)N(CC(=O)O)C1c1ccccc1Cl (stereo unspecified)
READOUT LABEL: response
UNITS OF MEASURE: %
MEASURED VALUE: 0
--
COMPOUND: COc1ccc(CN2CCCC(C(=O)c3ccc(Cl)cc3)C2)cc1Cn1cccn1 (stereo unspecified)
READOUT LABEL: response
UNITS OF MEASURE: %
MEASURED VALUE: 1.1
--
COMPOUND: O=C(NCCc1c[nH]c2ccccc12)c1cccnc1
READOUT LABEL: response
UNITS OF MEASURE: %
MEASURED VALUE: -6.3
--
COMPOUND: COc1cc(C(=O)NCCc2c[nH]c3ccccc23)ccc1OCc1c(C)noc1C
READOUT LABEL: response
UNITS OF MEASURE: %
MEASURED VALUE: 1.87
--
COMPOUND: C=C(C)Cn1c(NCCOC)nc2c1c(=O)[nH]c(=O)n2C
READOUT LABEL: response
UNITS OF MEASURE: %
MEASURED VALUE: -1.65
--
COMPOUND: COc1ccc(-c2cc(C(=O)N3CCOCC3)c3cc(C)ccc3n2)cc1
READOUT LABEL: response
UNITS OF MEASURE: %
MEASURED VALUE: -6.37

Lookup: Look up response for this compound: `COc1ccc(OCc2cccc(C(=O)NN)c2)cc1`
Found: -1.43

Lookup: Look up response for this compound: `CC(=O)Nc1nnc(S(N)(=O)=O)s1`
Found: 0.12

Lookup: Look up response for this compound: `CNc1c2c(nn1C)CCCC2`
Found: -7.05

Lookup: Look up response for this compound: `Cc1cc(C)c(NC(=O)NC(=O)C(Cl)(Cl)Cl)c(C)c1`
Found: 13.6

Lookup: Look up response for this compound: `O=C(CS(=O)(=O)c1ccccc1)c1ccc2c(c1)OCCO2`
Found: -0.24

Lookup: Look up response for this compound: `Cn1c(SCC(=O)c2ccccc2)nnc1-c1ccncc1`
Found: -4.48

Lookup: Look up response for this compound: `COc1ccc(N2CCN(C(=S)NCc3ccccc3)CC2)cc1`
Found: -3.6

Lookup: Look up response for this compound: `CC(C)(C)OC(=O)NCCC(=O)Oc1ccc2ccc(=O)oc2c1`
Found: 7.71

Lookup: Look up response for this compound: CCOC(=O)C1C(=O)OC(C)(C)C1C(C)C(=O)c1ccc(C)cc1 (stereo unspecified)
Found: -5.62
